Target: T1, recombinant Plasmodium falciparum circumsporozoite protein (CSP) (Plasmodium falciparum, UniProt Q7K740 21-375)
T1 construct: also called recombinant CSP
T1 sequence (Q7K740 21-375 limits assumed): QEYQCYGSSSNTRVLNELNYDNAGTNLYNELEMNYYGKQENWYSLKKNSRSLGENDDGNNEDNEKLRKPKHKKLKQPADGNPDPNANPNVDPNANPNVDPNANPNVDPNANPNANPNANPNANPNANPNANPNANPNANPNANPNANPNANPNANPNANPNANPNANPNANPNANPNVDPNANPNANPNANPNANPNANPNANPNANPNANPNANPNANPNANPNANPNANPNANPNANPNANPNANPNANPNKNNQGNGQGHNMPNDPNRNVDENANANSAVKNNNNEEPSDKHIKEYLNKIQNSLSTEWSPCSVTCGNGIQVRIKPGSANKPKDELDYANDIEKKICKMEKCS
Assay: SPR, recombinant CSP
Some binders, each annotated with its measured kon.
measured parameter: kon

- binder: "AB-000338 LS (antibody, V domains shown) VH: QVQLVESGGGVVQPGRSLRLSCAASGFSFSTYGMHWIRQVPGKGLEWVAIIWHDGSKEFYADSVKGRFTISRDNSKKKLYLQMNSLRAEDTAIYYCVKDDFDSSGHSYFHYWGQGTLVTVSS VL: GVVMTQSPLSLPVTLGQPASISCRSSQSLVHSDGNTYVHWFQQRPGQSPRRLIYKVSNRDSGVPDRFSGSGSGTDFTLKISRVEAEDVGVYYCMQGTQWWTFGQGTKVEIK"
  result: "1.13e+07 M⁻¹ s⁻¹"
- binder: "AB001529 (antibody, V domains shown) VH: QVQLVESGGGVVQPGRSLRLSCVASGFSFRSYGMHWVRQAPGKGLEWVAIIWYDGSNKYYAHSVKGRFTISRDNSKNTLYLQMNSLRAEDTAIYYCAKDGGTETTWGNAFDIWGQGTMVTVSS VL: DIQMTQSPSTLSASVGDRVTITCRASQSISSWLAWYQQKPGKAPKLLIYKASSLESGVPSRFSGSGSGTEFTLTINNLQPDDFATYYCQQYNSYWTFGQGTKVEIK"
  result: "660000 M⁻¹ s⁻¹"
